test: ATG_PPRE_CIS: Attagene CIS-FACTORIAL HepG2 Assay for human Peroxisome Proliferator-activated Response Element (PPRE) (AID 2282958); conditions: HepG2 PPRE cis-element reporter, Attagene transcription factor profiling; actives raise or lower the signal
Calls of active or inactive are those of the source. The calls were made as follows: active = hit-call score of the fitted dose curve at least 0.9, where 1 is the maximum; inactive = score below 0.9.
Give one outcome, nothing more. List: active, inactive

Dear colleague, could you share the recorded outcome for `FC(F)(F)C(F)(F)C(F)(F)C(F)(F)C(F)(F)C(F)(F)C(F)(F)I` when you have a moment? inactive

Dear colleague, could you share the recorded outcome for COC(OC(C)=O)c1ccccc1 (stereo not given) when you have a moment? inactive

Dear colleague, could you share the recorded outcome for `CC/C=C\CCOC(=O)c1ccccc1` when you have a moment? inactive

Dear colleague, could you share the recorded outcome for `O=C(O)C(F)(F)C(F)(F)C(F)(F)C(F)(F)C(F)(F)C(F)(F)C(F)(F)C(F)(F)C(F)(F)C(F)F` when you have a moment? active

Dear colleague, could you share the recorded outcome for `O=C(OCCOCCOCCOC(=O)c1ccccc1)c1ccccc1` when you have a moment? inactive

Dear colleague, could you share the recorded outcome for CCCCC(CC)COP(=O)(O)OCC(CC)CCCC (stereo not given) when you have a moment? active

Dear colleague, could you share the recorded outcome for `Cc1cc(C)cc(O)c1` when you have a moment? inactive

Dear colleague, could you share the recorded outcome for `[Co]` when you have a moment? inactive

Dear colleague, could you share the recorded outcome for CC(Cc1ccc(O)c(O)c1)C(C)Cc1ccc(O)c(O)c1 (stereo not given) when you have a moment? inactive

Dear colleague, could you share the recorded outcome for `FC(F)(Br)C(F)(F)C(F)(F)C(F)(F)C(F)(F)C(F)(F)Br` when you have a moment? inactive

Dear colleague, could you share the recorded outcome for `CCCCCCS` when you have a moment? inactive

Dear colleague, could you share the recorded outcome for `O=C(O)C(F)(F)C(F)(F)C(F)F` when you have a moment? inactive

Dear colleague, could you share the recorded outcome for `C=CC(=O)OCC(F)(F)C(F)(F)C(F)(F)C(F)(F)COC(=O)C=C` when you have a moment? inactive

Dear colleague, could you share the recorded outcome for CC(CCl)OP(=O)(OC(C)CCl)OC(C)CCl (stereo not given) when you have a moment? inactive

Dear colleague, could you share the recorded outcome for `CC(C)c1ccccc1N` when you have a moment? inactive

Dear colleague, could you share the recorded outcome for `Cc1ccc(S(=O)(=O)OCC(F)(F)C(F)(F)C(F)(F)C(F)(F)C(F)(F)C(F)F)cc1` when you have a moment? inactive

Dear colleague, could you share the recorded outcome for `CN(C)Cc1ccccc1O` when you have a moment? inactive

Dear colleague, could you share the recorded outcome for CCCCCCC(C)OC(=O)CCCCC(=O)OC(C)CCCCCC (stereo not given) when you have a moment? inactive

Dear colleague, could you share the recorded outcome for `FC(F)(F)C(F)(F)C(F)(F)CI` when you have a moment? inactive

Dear colleague, could you share the recorded outcome for `OCC(F)(F)C(F)(F)C(F)(F)C(F)(F)C(F)(F)C(F)(F)F` when you have a moment? inactive

Dear colleague, could you share the recorded outcome for `FC(F)(I)C(F)(F)C(F)(F)C(F)(F)I` when you have a moment? inactive

Dear colleague, could you share the recorded outcome for `CS(C)(=O)=O` when you have a moment? inactive

Dear colleague, could you share the recorded outcome for `O=S(=O)(OCC(F)F)C(F)(F)F` when you have a moment? inactive

Dear colleague, could you share the recorded outcome for `C#C[C@]1(O)CC[C@H]2[C@@H]3CCc4cc(OC)ccc4[C@H]3CC[C@@]21C` when you have a moment? inactive

Dear colleague, could you share the recorded outcome for `O=S(=O)(OCCOC(F)(F)F)C(F)(F)F` when you have a moment? inactive

Dear colleague, could you share the recorded outcome for `FC(F)(F)C(F)(F)C(F)(F)C(F)(F)C(F)(F)CCI` when you have a moment? inactive

Dear colleague, could you share the recorded outcome for CC(C)=CCCC(C)CCOC(=O)C(C)C (stereo not given) when you have a moment? inactive

Dear colleague, could you share the recorded outcome for `OCCCC(F)(F)C(F)(F)C(F)(F)F` when you have a moment? inactive

Dear colleague, could you share the recorded outcome for `O=C(C=Cc1ccccc1)OCC=Cc1ccccc1` when you have a moment? inactive

Dear colleague, could you share the recorded outcome for `CCN(Cc1cccc(S(=O)(=O)O)c1)c1ccc(C(=C2C=CC(=[N+](CC)Cc3cccc(S(=O)(=O)O)c3)C=C2)c2ccc(O)cc2S(=O)(=O)[O-])cc1` when you have a moment? active

Dear colleague, could you share the recorded outcome for `FC(F)(F)C(F)(F)C(F)(F)C(F)(F)CCI` when you have a moment? inactive

Dear colleague, could you share the recorded outcome for `O=C(O)C(F)(F)C(F)(F)OC(F)(F)F` when you have a moment? inactive

Dear colleague, could you share the recorded outcome for `Nc1cc(Cl)c(N)c(Cl)c1` when you have a moment? inactive

Dear colleague, could you share the recorded outcome for `C(=C(c1ccccc1)c1ccccc1)c1ccccc1` when you have a moment? inactive

Dear colleague, could you share the recorded outcome for `FC(F)(F)C(F)(F)C(F)(F)C(F)(F)C(F)(F)C(F)(F)C(F)(F)C(F)(F)F` when you have a moment? inactive

Dear colleague, could you share the recorded outcome for `FC(F)(F)C(F)(F)C(F)(F)C(F)(F)C(F)(F)C(F)(F)CCS` when you have a moment? inactive

Dear colleague, could you share the recorded outcome for `CCCCCCCCC(F)(F)C(F)(F)C(F)(F)C(F)(F)C(F)(F)C(F)(F)F` when you have a moment? inactive

Dear colleague, could you share the recorded outcome for `CC(C)(C)C(=O)CC(=O)C(F)(F)C(F)(F)C(F)(F)F` when you have a moment? inactive

Dear colleague, could you share the recorded outcome for `N=C(N)C(F)(F)C(F)(F)C(F)(F)C(F)(F)C(F)(F)C(F)(F)C(F)(F)F` when you have a moment? inactive

Dear colleague, could you share the recorded outcome for `O[Si](c1ccccc1)(c1ccccc1)c1ccccc1` when you have a moment? inactive

Dear colleague, could you share the recorded outcome for `Cc1cccc(N(C)C)c1` when you have a moment? inactive

Dear colleague, could you share the recorded outcome for `CCCCCCCOC(=O)c1ccccc1C(=O)OCCCCCCC` when you have a moment? inactive

Dear colleague, could you share the recorded outcome for `O=C(O)C(F)(F)C(F)(F)F` when you have a moment? inactive

Dear colleague, could you share the recorded outcome for `CCCCCCOC(=O)c1ccccc1O` when you have a moment? inactive

Dear colleague, could you share the recorded outcome for `CCO[Si](CCC(F)(F)C(F)(F)C(F)(F)C(F)(F)C(F)(F)C(F)(F)F)(OCC)OCC` when you have a moment? inactive
